Provenance of the data: patent US20110200585A1

- assaySystem: human CD127 ECD (human) (UniProt P16871)
- assayInfo: SPR, BIAcore 3000; antibody captured on anti-human IgG (Fc), CD127 ECD 16-512 nM as analyte, 1:1 Langmuir fit
readoutName: kon
Answer format reminder: number followed by unit.

1A11 H3L6 (antibody, V domains shown) VH: QVQLVQSGAEVKKPGASVKVSCKASGYTFTGYTMNWVRQAPGQGLEWMGLINPYNGVTSYNQKFKGRVTLTRDTSISTAYMELSRLRSDDTAVYYCARGDGNYWYFDVWGQGTTVTVSS VL: EIVLTQSPATLSLSPGERATLSCSASSSVTYMHWYQQKPGQAPRPWIYEISKLASGVPARFSGSGSGTDYTLTISSLEPEDFAVYYCQEWNYPYTFGGGTKVEIK; 18200 M⁻¹ s⁻¹

Request: Given the entry 6A3 H4-61_7L27 (antibody, V domains shown) VH: QVQLQESGPGLVKPSETLSLTCTVSGYSVTTDYAWNWIRQPPGKGLEWIGYIFYSGSTTYTPSLKSRVTISRDTSKNQFSLKLSSVTAADTAVYYCARGGYDVNYFDYWGQGTTVTVSS VL: DIQMLQSPSSLSASVGDRVTITCLASQTIGYWLAWYQQKPGKAPKLLIYAATRLADGVPSRFSGSGSGTMFTLTISSLQPEDFATYYCQQFFSYPWTFGGGTKVEIK , report its measured kon.
Response: 37700 M⁻¹ s⁻¹

Request: Given the entry 1A11 Chimera (antibody, human IgG1, V domains shown) VH: EVQLQQSGPELLKPGASMKISCKASGYSFTGYTMNWVKQSHGKNLEWIGLINPYNGVTSYNQKFKGKATLTVAKSSSTAYMELLSLTSEDSAVYYCARGDGNYWYFDVWGAGTTVTVSS VL: EIVLTQSPAITAASLGQKVTITCSASSSVTYMHWYQQKSGTSPKPWIYEISKLASGVPVRFSGSGSGTSYSLTISSMEAEDAAIYYCQEWNYPYTFGGGTKLEIK , report its measured kon.
Response: 92600 M⁻¹ s⁻¹
